The measurements presented in this section are drawn from patent US7842469B2.

Test: Serum stability in mouse serum at 37° C.
Format: in vitro ADME
Conditions: mouse serum, 37° C., mono-exponential fit
Description: Serum stability measurements were done by mixing 0.5 μl dilute Luciferase with either 20 μl mouse serum or 50 μl rat serum (Equitech-Bio, Kerrville, Tex.) placing the sample in a 37° C. incubator, and removing aliquots for activity testing. […] Emission spectra at ambient temperature were measured using a Triax 320 (Horiba Jobin Yvon, Edison, N.J.), which incorporates an optical grating device with a liquid N2 cooled CCD detector.
test.readout: Serum τ1/2 (h) mouse
Express the result in h but write the number alone.

| molecule | Serum τ1/2 (h) mouse |
| --- | --- |
| C124A/G229E: RLuc mutant C124A/G229E (protein) MASKVYDPEQRKRMITGPQWWARCKQMNVLDSFINYYDSEKHAENAVIFLHGNAASSYLWRHVVPHIEPVARCIIPDLIGMGKSGKSGNGSYRLLDHYKYLTAWFELLNLPKKIIFVGHDWGAALAFHYSYEHQDKIKAIVHAESVVDVIESWDEWPDIEEDIALIKSEEGEKMVLENNFFVETMLPSKIMRKLEPEEFAAYLEPFKEKGEVRRPTLSWPREIPLVKGEKPDVVQIVRNYNAYLRASDDLPKMFIESDPGFFSNAIVEGAKKFPNTEFVKVKGLHFSQEDAPDEMGKYIKSFVERVLKNEQ | 1.9 |

Return Serum τ1/2 (h) mouse for the following molecule: A54G/A55G/C124A: RLuc mutant A54G/A55G/C124A (protein) MASKVYDPEQRKRMITGPQWWARCKQMNVLDSFINYYDSEKHAENAVIFLHGNGGSSYLWRHVVPHIEPVARCIIPDLIGMGKSGKSGNGSYRLLDHYKYLTAWFELLNLPKKIIFVGHDWGAALAFHYSYEHQDKIKAIVHAESVVDVIESWDEWPDIEEDIALIKSEEGEKMVLENNFFVETMLPSKIMRKLEPEEFAAYLEPFKEKGEVRRPTLSWPREIPLVKGGKPDVVQIVRNYNAYLRASDDLPKMFIESDPGFFSNAIVEGAKKFPNTEFVKVKGLHFSQEDAPDEMGKYIKSFVERVLKNEQ
2.4
